# System: Plasmodium gallinaceum
# method-description: Antimalarial activity against trophozoite-induced Plasmodium gallinaceum infected in white leghorn chicken assessed as increase in mean survival days of host at 80 mg/kg, sc administered 72 hrs after infection relative to control
# Type: functional
# assay-conditions: route subcutaneous
Measured MST, listed per entry.
Remember to put the unit after the number in your answer.

Guide cases for MST, answers given:
{"columns": ["compound", "target-system", "obs-value"],
 "data": [
  ["Nc1nc(N)c2cc(Sc3ccc(Cl)cc3)ccc2n1", "Plasmodium gallinaceum", "16.7 days"],
  ["Nc1nc(N)c2cc(Sc3ccc4ccccc4c3)ccc2n1", "Plasmodium gallinaceum", "16.2 days"],
  ["CN(Cc1ccc(Cl)c(Cl)c1)c1ccc2nc(N)nc(N)c2c1", "Plasmodium gallinaceum", "20.6 days"],
  ["Nc1nc(N)c2cc(Sc3ccc(F)cc3)ccc2n1", "Plasmodium gallinaceum", "13 days"],
  ["Cc1ccc(Sc2ccc3nc(N)nc(N)c3c2)cc1", "Plasmodium gallinaceum", "15.2 days"]
]}

What value of MST has been recorded for this entry: Cc1ccc(Cl)cc1Sc1ccc2nc(N)nc(N)c2c1
18 days

====

# Tested on: Plasmodium gallinaceum
# method-description: Antimalarial activity against trophozoite-induced Plasmodium gallinaceum infected in white leghorn chicken assessed as increase in mean survival days of host at 80 mg/kg, sc administered 72 hrs after infection relative to control
# Type: functional
# assay-conditions: route subcutaneous
Please mark y if the recorded MST is equal to or greater than 10 days, and n if it falls below.

Reference set (3 entries):
{"columns": ["compound", "target-system", "group"],
 "data": [
  ["Nc1nc(N)c2cc(Sc3ccccc3)ccc2n1", "Plasmodium gallinaceum", "n"],
  ["CC(=O)O.Nc1nc(N)c2cc(N(Cc3ccc(Cl)c(Cl)c3)N=O)ccc2n1", "Plasmodium gallinaceum", "y"],
  ["Cc1cccc(Sc2ccc3nc(N)nc(N)c3c2)c1", "Plasmodium gallinaceum", "n"]
]}

Kindly determine if MST recorded for Cc1ccccc1Sc1ccc2nc(N)nc(N)c2c1 is above or exactly 10 days.
y

Confirm if MST reported for the compound Nc1nc(N)c2cc(NCc3ccc(Cl)c(Cl)c3)ccc2n1 is 10 days or above.
y

====

# System: Plasmodium berghei
# method-description: Antimalarial activity against Plasmodium berghei infected in mouse assessed as increase in mean survival days of host at 2.5 mg/kg, sc administered 72 hrs after infection relative to control
# Format: functional
# assay-conditions: route subcutaneous
readout-label: MST (days)
Answer format: numeric, days implied, no suffix.

// below: answered molecules
{"columns": ["molecule", "obs-value"],
 "data": [
  ["CN(Cc1ccc(Cl)c(Cl)c1)c1ccc2nc(N)nc(N)c2c1", 1.5],
  ["Cc1c(Sc2ccc(Cl)c(Cl)c2)ccc2nc(N)nc(N)c12", 2.5],
  ["Nc1nc(N)c2cc(Sc3ccc(Cl)c(Cl)c3)ccc2n1", 5.9],
  ["Nc1nc(N)c2cc(Sc3c(F)c(F)cc(F)c3F)ccc2n1", 0.3],
  ["Nc1nc(N)c2c(Cl)c(Sc3ccc4ccccc4c3)ccc2n1", 7.9],
  ["Nc1nc(N)c2cc(Sc3cccc(C(F)(F)F)c3)ccc2n1 [WR-159412]", 2.7],
  ["Cc1ccccc1Sc1ccc2nc(N)nc(N)c2c1", 5.5],
  ["Nc1nc(N)c2cc(Sc3ccc4ccccc4c3)ccc2n1", 5.3]
]}

API: the following record is the query input.
Could you tell me which MST is on file for CCc1nc(N)nc(N)c1-c1ccc(Cl)cc1 [PYRIMETHAMINE] ?
4.7

====

# Test system: Plasmodium berghei
# method-description: Antimalarial activity against Plasmodium berghei infected in mouse assessed as disease cure from parasite infection at 640 mg/kg, sc administered 72 hrs after infection
# Format: functional, organism-based
# Parameters: dose 640 mg/kg
Activity calls are given as the source filed them. The rule behind the calls is not given here.

{"columns": ["compound", "Activity"],
 "data": [
  ["COc1ccc(Sc2ccc3nc(N)nc(N)c3c2)cc1", "Active"],
  ["Nc1nc(N)c2cc(Sc3cccc(Cl)c3)ccc2n1", "Active"],
  ["CN(C)c1ccc(Sc2ccc3nc(N)nc(N)c3c2)cc1", "Active"]
]}

====

# MST listing for each entry below
# Test system: Plasmodium gallinaceum
# method-description: Antimalarial activity against trophozoite-induced Plasmodium gallinaceum infected in white leghorn chicken assessed as increase in mean survival days of host at 2.5 mg/kg, sc administered 72 hrs after infection relative to control
# Type: functional
# assay-conditions: route subcutaneous
Please state the value followed by its unit.

{"columns": ["compound", "MST"],
 "data": [
  ["Nc1nc(N)c2cc(Sc3ccc(Br)cc3)ccc2n1", "6 days"],
  ["Cc1cccc(Sc2ccc3nc(N)nc(N)c3c2)c1", "0 days"]
]}

Please find the next compound below.
For Plasmodium gallinaceum, provide MST of Nc1nc(N)c2cc(Sc3cccc(-c4ccccc4)c3)ccc2n1 please.
0 days

====

# Tested on: Mycobacterium tuberculosis
# method-description: Antibacterial activity against Mycobacterium tuberculosis H37Ra by gradient plate test
# Format: functional
Parameter MIC: see the listing below.

Examples from the recorded data:
{"columns": ["compound", "readout-label", "obs-value"],
 "data": [
  ["Nc1nc(N)c2cc(Sc3cccc(Cl)c3)ccc2n1", "MIC", "> 25 µg/mL"],
  ["Nc1nc(N)c2c(Cl)c(Sc3cccc(C(F)(F)F)c3)ccc2n1", "MIC", "10 µg/mL"],
  ["COc1cc(Cc2cnc(N)nc2N)cc(OC)c1OC", "MIC", "> 25 µg/mL"]
]}

Item Cc1cc(Sc2ccc3nc(N)nc(N)c3c2)ccc1Br has what recorded MIC?
> 25 µg/mL

# lookup: MIC of Nc1nc(N)c2cc(Sc3ccc(O)cc3)ccc2n1
> 25 µg/mL

Query: MIC; subject: Nc1nc(N)c2c(Cl)c(Sc3ccccc3)ccc2n1
10 µg/mL

====

The molecules listed here are annotated with their MST.
# System: Plasmodium berghei
# method-description: Antimalarial activity against Plasmodium berghei infected in mouse assessed as increase in mean survival days of host at 2.5 mg/kg, sc administered 72 hrs after infection relative to control
# Type: functional
# assay-conditions: route subcutaneous
// units = days; emit number, no label

Consider the following illustrative entries.
{"columns": ["compound", "u", "obs-value"],
 "data": [
  ["Nc1nc(N)c2cc(Sc3cccc(-c4ccccc4)c3)ccc2n1", "days", 5.3],
  ["Nc1nc(N)c2cc(Sc3ccc(Br)cc3)ccc2n1", "days", 3.6],
  ["CN(C)c1ccc(Sc2ccc3nc(N)nc(N)c3c2)cc1", "days", 5.5],
  ["COc1ccc(Sc2ccc3nc(N)nc(N)c3c2)cc1", "days", 3.8]
]}

// switching to the query molecule
Item Cc1c(Sc2ccc3ccccc3c2)ccc2nc(N)nc(N)c12 has what recorded MST?
6.5

====

# Tested on: Mycobacterium tuberculosis
# method-description: Antibacterial activity against Mycobacterium tuberculosis H37Ra by gradient plate test
# Format: functional
Each record here notes measured MIC.

{"columns": ["compound", "MIC"],
 "data": [
  ["CC(=O)Nc1ccc(Sc2ccc3nc(N)nc(N)c3c2)cc1", "> 25 µg/mL"],
  ["Nc1nc(N)c2cc(Sc3cc(Cl)cc(Cl)c3)ccc2n1", "20 µg/mL"],
  ["Nc1nc(N)c2c(Cl)c(Sc3ccc(F)cc3)ccc2n1", "5 µg/mL"],
  ["Nc1nc(N)c2cc(Sc3cccc4ccccc34)ccc2n1", "> 25 µg/mL"],
  ["Nc1nc(N)c2c(Cl)c(Sc3ccccc3Cl)ccc2n1", "> 25 µg/mL"],
  ["Nc1nc(N)c2cc(Sc3cccc(-c4ccccc4)c3)ccc2n1", "> 25 µg/mL"],
  ["Nc1nc(N)c2cc(Sc3ccccc3-c3ccccc3)ccc2n1", "20 µg/mL"]
]}

Item: Nc1nc(N)c2c(Cl)c(Sc3ccc4ccccc4c3)ccc2n1 Test system: Mycobacterium tuberculosis Read-out: MIC Value: ?
10 µg/mL

====

# System: Plasmodium berghei
# method-description: Antimalarial activity against Plasmodium berghei infected in mouse assessed as increase in mean survival days of host at 2.5 mg/kg, sc administered 72 hrs after infection relative to control
# Assay type: functional
# assay-conditions: route subcutaneous
readout-label: MST

Below, each entry is followed by its recorded MST result.
{"columns": ["compound", "obs-value"],
 "data": [
  ["Nc1nc(N)c2cc(Sc3ccc(F)cc3)ccc2n1", "6.1 days"],
  ["Nc1nc(N)c2cc(Sc3cccc4ccccc34)ccc2n1", "1.1 days"],
  ["Nc1nc(N)c2cc(Sc3c(Cl)c(Cl)c(Cl)c(Cl)c3Cl)ccc2n1", "2 days"],
  ["Nc1nc(N)c2cc(Sc3ccc(Cl)cc3)ccc2n1", "2.5 days"]
]}

Fill in: MST of Cc1ccc(Cl)cc1Sc1ccc2nc(N)nc(N)c2c1 is ___
4.1 days
